Source of measurements: PubChem BioAssay AID1159580

- test method notes: chemical genetic growth profiling, strain panel (AID 1159580);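 further: tested at 20 µM; growth read once vehicle control cultures reached saturation at 30 °C; 1 = growth at the plate median or of vehicle wells; lower values mean less growth of the strain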
- applied conditions: S. cerevisiae deletion strains, growth OD, strain TSCII, active compounds read low
The campaign covered roughly 5,500 compounds. About 2,000 (36%) were called active. About 18% were inconclusive and are not listed. This is one part of the list.
reported endpoint: normalized growth
Reply with the value as a number alone.

Solved cases below.
- molecule: "COc1ccc(CN2CSC(=S)N(Cc3ccc(OC)cc3)C2)cc1"
  experimental result: 0.964
- molecule: "Cc1nnsc1C(=O)NNc1c(Cl)cccc1Cl"
  experimental result: 0.977
- molecule: "COc1ccc(NNC(=O)c2sc3ccccc3c2Cl)cc1"
  experimental result: 0.923

**Query** Provide measured normalized growth value, entry: CC(=O)CSc1nnc(-c2ccc(C(C)(C)C)cc2)n1-c1ccc(Cl)cc1
**Result** 0.99

**Query** Provide measured normalized growth value, entry: Cc1cc(C(=O)NNc2ccc(F)cc2F)no1
**Result** 0.964

**Query** Provide measured normalized growth value, entry: CCOC(=O)CSC(=S)NCc1ccc(C)cc1
**Result** 0.949

**Query** Provide measured normalized growth value, entry: COc1cc2c(cc1OC)C(C)N(C(=O)c1sc3ccccc3c1Cl)CC2 (configuration not stated)
**Result** 0.969

**Query** Provide measured normalized growth value, entry: CSC1=NNC(c2nn(C)cc2Cl)S1 (configuration not stated)
**Result** 0.337

**Query** Provide measured normalized growth value, entry: O=C(Oc1ccc(C(F)(F)F)cc1[N+](=O)[O-])c1cccc(Cl)c1
**Result** 0.94

**Query** Provide measured normalized growth value, entry: Cc1ccc(OCC2SCCN2C(=O)c2ccc(C(F)(F)F)cc2)c([N+](=O)[O-])c1 (configuration not stated)
**Result** 1

**Query** Provide measured normalized growth value, entry: Cc1nnsc1C(=O)NNc1ccc(F)cc1F
**Result** 0.947

**Query** Provide measured normalized growth value, entry: Cc1nnsc1C(=O)Nc1cc(C(F)(F)F)cc(C(F)(F)F)c1
**Result** 0.954
